Recorded measurements of inhibition, one per entry
SYSTEM TESTED: Transcription factor Jun (Homo sapiens)
ASSAY METHOD TEXT: Inhibition of AP-1 expressed in HEK293 cells assessed as PMA-stimulated transcriptional activation at 10 uM treated 24 hrs before PMA challenge measured after 20 to 24 hrs by luciferase reporter gene assay
Format: cell-based
RESULT TYPE: inhibition

{"LINE NOTATION": "CSc1ccc(-c2cc(-c3nc4ccccc4c(=O)n3-c3ccccc3)sc2N2CCOCC2)cc1", "VALUE REPORTED": "0%"}
{"LINE NOTATION": "O=c1c2ccccc2nc(-c2cc(-c3ccncc3)c(N3CCOCC3)s2)n1-c1ccc(Cl)cc1", "VALUE REPORTED": "32%"}
{"LINE NOTATION": "CC(=O)Nc1ccc(-c2cc(-c3nc4ccccc4c(=O)n3-c3cccc(C)c3)sc2N2CCOCC2)cc1", "VALUE REPORTED": "13%"}
{"LINE NOTATION": "CC(=O)c1ccc(-n2c(-c3cc(-c4ccc(S(C)(=O)=O)cc4)c(N4CCOCC4)s3)nc3ccccc3c2=O)cc1", "VALUE REPORTED": "31%"}
{"LINE NOTATION": "Cc1ccccc1-n1c(-c2cc(-c3ccncc3)c(N3CCOCC3)s2)nc2ccccc2c1=O", "VALUE REPORTED": "0%"}
{"LINE NOTATION": "CC(=O)c1ccc(-n2c(-c3cc(-c4ccccc4)c(N4CCOCC4)s3)nc3ccccc3c2=O)cc1", "VALUE REPORTED": "25%"}
{"LINE NOTATION": "COc1ccccc1-n1c(-c2cc(-c3ccncc3)c(N3CCOCC3)s2)nc2ccccc2c1=O", "VALUE REPORTED": "33%"}
{"LINE NOTATION": "Cc1ccccc1-n1c(-c2cc(-c3ccc(Cl)cc3)c(N3CCOCC3)s2)nc2ccccc2c1=O", "VALUE REPORTED": "32%"}
{"LINE NOTATION": "O=c1c2ccccc2nc(-c2cc(-c3ccc(Cl)cc3)c(N3CCOCC3)s2)n1-c1ccccc1", "VALUE REPORTED": "0%"}
